- Test system: DU-145
- Assay Details: NCI tumour cell line growth inhibition, 48 h
Active and inactive are the calls of the source. Cut-off read from the data, not from the text of the source: active = GI50 up to about 1.1 µM and inactive = higher.
Recorded Endpoint: GI50

Would you please look over these solved cases?
Param item = CCCCCCCCCCCCC(=O)NCC(=O)NC(Cc1ccccc1)C(=O)Oc1ccc([N+](=O)[O-])cc1 (stereo unspecified) ; retrieve measured GI50.
> 100 µM (inactive)

Param item = O=C(Nc1cccc(F)c1)c1cc2ccc(O)cc2o/c1=N\c1cccc(F)c1 ; retrieve measured GI50.
4.27 µM (inactive)

Param item = COC(=O)C1=C(C(=O)OC)C2(/N=C(\Nc3ccccc3)c3ccccc3)N(c3ccc(OC)cc3)CC(c3ccccc3)N2O1 (stereo unspecified) ; retrieve measured GI50.
> 100 µM (inactive)

Param item = Cc1cn(C2CC(N(O)C(N)=O)C(CO)O2)c(=O)[nH]c1=O (stereo unspecified) ; retrieve measured GI50.
> 100 µM (inactive)

Param item = COC1=CC(=O)c2c(cc(COP(=O)(N(C)CCBr)N(C)CCBr)n2C)C1=O ; retrieve measured GI50.
< 0.0235 µM (active)

Param item = O=S(=O)(O)c1ccc2c(/N=N/c3ccccc3Cl)c(O)ccc2c1 ; retrieve measured GI50.
> 100 µM (inactive)

Continuing:
Param item = CC(=O)OC(C)(C)[C@H]1O[C@]23O[C@]1(C)C[C@@H](C)[C@@H]2[C@@]1(C)CC[C@@]24C[C@@]25CC[C@H](O[C@@H]2OC[C@@H](O)[C@H](O)[C@H]2O)C(C)(C)[C@@H]5CC[C@H]4[C@]1(C)[C@H]3O ; retrieve measured GI50.
4.34 µM (inactive)

Param item = CCOC(=O)c1cc2cc(C)cc(C(=O)c3ccc([N+](=O)[O-])cc3)c2[nH]1 ; retrieve measured GI50.
> 100 µM (inactive)

Param item = O=S1(=O)OCCOS(=O)(=O)C1S(=O)(=O)c1ccc2ccccc2c1 ; retrieve measured GI50.
> 100 µM (inactive)

Param item = C/C(=C\CNc1nc(Cl)nc2[nH]cnc12)CO ; retrieve measured GI50.
> 100 µM (inactive)

Param item = c1ccc(C2=C(c3ccccc3)Sc3nnc(CCCCCCCCc4nnc5n4NC(c4ccccc4)=C(c4ccccc4)S5)n3N2)cc1 ; retrieve measured GI50.
> 100 µM (inactive)

Param item = Nc1nc(Cl)c(N)c(NCC2(CO)CCCC2)n1 ; retrieve measured GI50.
> 100 µM (inactive)

Param item = O=S(=O)(c1ccccc1)n1c2ccc(Br)cc2c2nc3ccccc3nc21 ; retrieve measured GI50.
> 100 µM (inactive)

Param item = Cn1c2ccccc2c2c3c(c4c5ccccc5n(C)c4c21)C(=O)c1ccccc1C3=O ; retrieve measured GI50.
> 100 µM (inactive)

Param item = C=CCOc1ccc(C2c3c(n[nH]c3O)CC(C)(O)C2C(=O)OC)cc1OC (stereo unspecified) ; retrieve measured GI50.
> 100 µM (inactive)

Param item = CC1=C(C)CC2C(=O)N(c3cc(C(C)(C)C)ccc3C(C)(C)C)C(=O)C2C1 (stereo unspecified) ; retrieve measured GI50.
> 100 µM (inactive)

Param item = Nc1ncn(C/C=C/c2ccccc2)c2ncnc1-2 ; retrieve measured GI50.
> 100 µM (inactive)

###

Parameter GI50: see the listing below.
- System: NCI-H460
- Assay Details: NCI tumour cell line growth inhibition, 48 h
Calls of active or inactive are those of the source. Rule as the data show it: active = GI50 up to about 1.1 µM and inactive = higher.

Param item = O=[N+]([O-])c1ccc(/N=N/N2CCCC2)cc1 ; retrieve measured GI50.
> 100 µM (inactive)

Param item = O=C(CN1CCOCC1)NC1=Nc2ncccc2C(=O)NN1 ; retrieve measured GI50.
> 10 µM (inactive)

Param item = COc1ccc2nc3cc([N+](=O)[O-])ccc3c(Nc3ccc(S(=O)(=O)Nc4ncccn4)cc3)c2c1 ; retrieve measured GI50.
61.5 µM (inactive)

Param item = CN1C2CCC1CC(CCNC(c1ccccc1)c1ccccc1)C2 (stereo not given) ; retrieve measured GI50.
83.9 µM (inactive)

Param item = C/C(=C/CC[C@](C)(OC1OC(CO)C(O)C(O)C1O)[C@H]1CC[C@]2(C)[C@@H]1CC[C@@H]1[C@@]3(C)CC[C@H](O)C(C)(C)[C@@H]3C[C@H](O)[C@]12C)CO (stereo not given in full) ; retrieve measured GI50.
16.8 µM (inactive)

Param item = CC(C)(C)CNCCCNc1ccc(Cl)cc1 ; retrieve measured GI50.
37.2 µM (inactive)

Param item = CC1(CO)OC(n2cnc3cncnc32)CC1O (stereo not given) ; retrieve measured GI50.
> 100 µM (inactive)

Param item = CC(O)CN1c2ccccc2Sc2ccc(Cl)cc21 (stereo not given) ; retrieve measured GI50.
> 10 µM (inactive)

Continuing:
Param item = COc1ccc(C)cc1N1C(=O)C2ON(Cc3ccc(CC(N)=O)cc3)C(c3c4ccccc4c(Cl)c4ccccc34)C2C1=O (stereo not given) ; retrieve measured GI50.
18.4 µM (inactive)

Param item = O=C(O[C@H]1CCN2C[C@H]3C[C@H](CN4C(=O)CCC[C@H]34)[C@@H]2C1)c1ccc(O)cc1 ; retrieve measured GI50.
> 100 µM (inactive)

Param item = N/N=C1/CCCc2nonc21 ; retrieve measured GI50.
> 100 µM (inactive)

Param item = C=C1CC2CC[C@@]34C[C@H]5O[C@@H]6C(O[C@H]7CC[C@H](CC(=O)OC8[C@H](C)C9OC%10C[C@]%11(C[C@@H]%12O[C@]%13(C[C@H](C)[C@@H]%14O[C@H]([C@H](O)C[C@H](O)CO)C[C@@H]%14O%13)C[C@H](C)[C@@H]%12O%11)OC%10CC9O[C@H]8C[C@H]8O[C@H](CC[C@@H]1O2)C[C@@H](C)C8=C)O[C@H]7[C@@H]6O3)[C@@H]5O4 (stereo not given in full) ; retrieve measured GI50.
0.000859 µM (active)

Param item = N/C(=N\O)N/N=C/c1ccc2c(c1)OCCO2 ; retrieve measured GI50.
7.55 µM (inactive)

Param item = O=S(=O)(/N=c1\[nH]c(-c2cc(O)c(O)c(O)c2)cs1)c1ccc(Cl)cc1Cl ; retrieve measured GI50.
18.7 µM (inactive)

Param item = C#CC1/C(=C\C(=O)OC)CCCC1O (stereo not given) ; retrieve measured GI50.
> 100 µM (inactive)

###

- Tested on: NCI-H226
- Assay Details: NCI tumour cell line growth inhibition, 48 h
Calls of active or inactive are those of the source. Rule as the data show it: active = GI50 up to about 1.1 µM and inactive = higher.
Recorded Endpoint: GI50

Would you please look over these solved cases?
Requested read-out GI50, target or system NCI-H226, entry COc1c(Br)cc2ccccc2c1-c1c(OC)c(Br)cc2ccccc12
> 100 µM (inactive)

Requested read-out GI50, target or system NCI-H226, entry CCCN(CCCC(NC(C)=O)C(=O)NCc1ccccc1)C(=O)N(C)N=O (centres undefined)
> 100 µM (inactive)

Requested read-out GI50, target or system NCI-H226, entry S=P1(Oc2ccccc2)NNP2(=NP(N3CC3)(N3CC3)=NP(N3CC3)(N3CC3)=N2)NN1 (centres undefined)
> 100 µM (inactive)

Requested read-out GI50, target or system NCI-H226, entry C/C=C/[C@H]1O[C@@](OC)([C@@H](C)[C@H](O)[C@H](C)[C@H]2OC(=O)/C(OC)=C/C(C)=C/[C@@H](C)[C@@H](O)[C@@H](C)[C@@H](O)[C@H](C)C/C(C)=C/C=C/[C@@H]2OC)CC(OC2CC(O)C(OC(N)=O)C(C)O2)[C@@H]1C (some centres undefined)
< 0.01 µM (active)

Requested read-out GI50, target or system NCI-H226, entry CC(=O)N(C)c1ccc2ncccc2c1[N+](=O)[O-]
> 100 µM (inactive)

Continuing:
Requested read-out GI50, target or system NCI-H226, entry N#Cc1c(C#N)c(-c2ccco2)n(/N=C/c2ccco2)c1N
18.8 µM (inactive)

###

- System: T47D
- Assay Details: NCI tumour cell line growth inhibition, 48 h
Calls of active or inactive are those of the source. Rule as the data show it: active = GI50 up to about 1.1 µM and inactive = higher.
Recorded Endpoint: GI50

Would you please look over these solved cases?
Param item = COC(=O)/C(C#N)=C(\N)c1c(C)c2ccccc2oc1=N ; retrieve measured GI50.
> 100 µM (inactive)

Param item = C=CCOc1ccc(C2c3c(n[nH]c3O)CC(C)(O)C2C(=O)OC)cc1OC (centres undefined) ; retrieve measured GI50.
> 100 µM (inactive)

Param item = C=C1CC2CC[C@@]34C[C@H]5O[C@@H]6C(O[C@H]7CC[C@H](CC(=O)OC8[C@H](C)C9OC%10C[C@]%11(C[C@@H]%12O[C@]%13(C[C@H](C)[C@@H]%14O[C@H]([C@H](O)C[C@H](O)CO)C[C@@H]%14O%13)C[C@H](C)[C@@H]%12O%11)OC%10CC9O[C@H]8C[C@H]8O[C@H](CC[C@@H]1O2)C[C@@H](C)C8=C)O[C@H]7[C@@H]6O3)[C@@H]5O4 (some centres undefined) ; retrieve measured GI50.
2.65 µM (inactive)

Now for the compound whose GI50 we want.
Param item = CCOC(=O)N(C)CCC1CC=CC(=O)C1c1cccc(OC)c1OC (centres undefined) ; retrieve measured GI50.
21.4 µM (inactive)
